target: human 5-HT6 receptor (Homo sapiens, UniProt P50406); construct: host or cells: CHO-K1 cells, stably transfected; membranes prepared in house; experiment: Human 5-HT6 Receptor Binding Assay ([3H]LSD displacement, scintillation beads); conditions: membranes of CHO-K1 cells with recombinant human 5-HT6, 4 nM [3H]LSD; Table 1, class symbols; read-out: h5-HT6 (Ki)
Sequence (P50406 whole entry): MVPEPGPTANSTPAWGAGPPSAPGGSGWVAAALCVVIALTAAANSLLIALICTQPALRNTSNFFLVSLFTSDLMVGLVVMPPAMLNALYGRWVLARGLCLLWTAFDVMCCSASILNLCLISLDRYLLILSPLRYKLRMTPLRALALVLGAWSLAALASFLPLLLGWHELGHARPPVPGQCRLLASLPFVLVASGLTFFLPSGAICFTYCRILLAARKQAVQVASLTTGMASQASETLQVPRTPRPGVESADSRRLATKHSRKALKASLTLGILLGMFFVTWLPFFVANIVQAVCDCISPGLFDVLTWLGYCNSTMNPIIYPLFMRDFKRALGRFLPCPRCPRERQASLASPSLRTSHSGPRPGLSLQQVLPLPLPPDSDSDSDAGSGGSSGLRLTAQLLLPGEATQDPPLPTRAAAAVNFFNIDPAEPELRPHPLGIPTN
reportedMetric: Ki

- molecule: "CC(=O)N(C)CC1NCCc2c1oc1cc(S(=O)(=O)c3cccc(Cl)c3)ccc21 (racemic)"
  testedSystem: "human 5-HT6 receptor (Homo sapiens, UniProt P50406)"
  Ki: "< 500 nM"

**Query** Quickly give me recorded Ki for `O=S(=O)(c1ccc(Cl)c(C(F)(F)F)c1)c1ccc2oc3c(c2c1)CCNC3`
**Result** < 500 nM

**Query** Complete the entry with Ki for `COc1ccc(Cl)cc1S(=O)(=O)c1ccc2c3c(oc2c1)CNCC3`
**Result** < 500 nM

**Query** Return the recorded Ki value; entry: O=S(=O)(c1cccc(F)c1)c1ccc2c3c(oc2c1)C1(CCOCC1F)NCC3 (single isomer, unassigned) [Example 55]
**Result** < 500 nM

**Query** Hello, please tell me recorded Ki for this one: COc1ccccc1S(=O)(=O)c1ccc2c(c1)OC1CNCCC21C (racemic)
**Result** < 500 nM

**Query** # return recorded Ki for input COc1ccc2sc(S(=O)(=O)c3ccc4c(c3)OC3CNCCC43)nc2c1 (stereo not shown)
**Result** > 1000 nM

**Query** Specify Ki for CC12CCNCC1Oc1ccc(OS(=O)(=O)c3cc4ccccc4o3)cc12 (stereo not shown) [Example 765] and stop.
**Result** 500 to 1000 nM

* * *

melting point values, listed per item
Counter-ions that a name gives are not always drawn.

Check out these entries, answers already filled in.
- compound: "CC12CCNCC1Oc1ccc(S(=O)(=O)c3cccc(F)c3)cc12 (stereo not shown)"
  melting point: "168 to 171 °C"
- compound: "COc1cccc(S(=O)(=O)c2ccc3c(c2)OC2CNCCC32C)c1 (racemic) (as salt: HCl)"
  melting point: "279 to 280 °C"
- compound: "CNC(=O)c1cccc(S(=O)(=O)c2ccc3c4c(oc3c2)CNCC4)c1 (as salt: HCl)"
  melting point: "> 290 °C"
- compound: "O=S(=O)(c1cccc(OCC2CCOCC2)c1)c1ccc2c(c1)OC1CNCCC21 (stereo not shown) (as salt: HCl) [Example 570]"
  melting point: "188 to 190 °C"
- compound: "COc1ccccc1S(=O)(=O)c1ccc2c(c1)OC1CNCCC21C (racemic) (as salt: HCl)"
  melting point: "222 to 224 °C"
- compound: "CC1OCCC12NCCc1c2oc2cc(S(=O)(=O)c3cccc(F)c3)ccc12 (single isomer, unassigned) (as salt: HCl) [Example 59]"
  melting point: "262 to 265 °C"

Attention now shifts to the item below.
**Query** Respond only with melting point recorded for `CC(C)Oc1cccc(S(=O)(=O)c2ccc3c4c(oc3c2)CNCC4(C)C)c1`
**Result** 251 to 252 °C

* * *

Ki: recorded values
target: human 5-HT6 receptor (Homo sapiens); construct: host or cells: CHO-K1 cells, stably transfected; membranes prepared in house; test: Human 5-HT6 Receptor Binding Assay ([3H]LSD displacement, scintillation beads); conditions: membranes of CHO-K1 cells with recombinant human 5-HT6, 4 nM [3H]LSD; Table 1, class symbols; read-out: h5-HT6 (Ki)

- compound: "[O-][S+](c1ccc2oc3c(c2c1)CCNC3)c1cccnc1OCC(F)(F)F (stereo not drawn)"
  Ki: "> 1000 nM"

**Query** Give me measured Ki, please, for this compound: `CC(C)Oc1cccc(S(=O)(=O)c2ccc3c4c(oc3c2)CNCC4)c1`
**Result** < 500 nM

**Query** Respond only with Ki recorded for O=S(=O)(Oc1ccc2c(c1)OC1CN(Cc3ccccc3)CCC21)c1ccc(Cl)cc1 (stereo not drawn)
**Result** > 1000 nM

**Query** For the compound O=S(=O)(Oc1ccc2c(c1)OC1CNCCC21)c1ccc2ccccc2c1 (stereo not drawn) , give its measured Ki value.
**Result** < 500 nM

**Query** Item O=S(=O)(Nc1ccc(Cl)c(Cl)c1)c1ccc2c(c1)C1CCNCC1O2 (stereo not drawn) : provide Ki
**Result** > 1000 nM

**Query** Return reported Ki. Input compound: O=S(=O)(c1ccc2c(c1)OC1CNCCC21)c1cccc2nonc12 (stereo not drawn)
**Result** > 1000 nM

**Query** Return reported Ki. Input compound: `O=[N+]([O-])c1ccc(S(=O)(=O)c2ccc3oc4c(c3c2)CCNC4)cc1`
**Result** > 1000 nM

**Query** Return Ki for the following compound: COc1cccc(COc2cccc(S(=O)(=O)c3ccc4c(c3)OC3CNCCC43)c2)c1 (stereo not drawn)
**Result** < 500 nM

**Query** Return Ki for the following compound: `O=S(=O)(c1cccc(Cl)c1)c1ccc2c3c(oc2c1)CN(CCc1ccccc1)CC3`
**Result** < 500 nM
